test system: 186277-243-T-J2-PDC complex spheroid viability; test: Anticancer human tumor 186277-243-T-J2-PDC patient-derived colon adenocarcinoma cell line growth inhibition [GQUAD]; conditions: second compound 0.1 µM; first compound 0.1 µM; hits give low values;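 also: spheroids exposed to drugs for 7 days; 100% = DMSO vehicle control viability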
MEASUREMENT_KIND: viability, T/C (%)
Kindly answer with a numeric value in %, unit omitted.

Look over these answered cases.
{"COMPOUND": "CCCS(=O)(=O)Nc1ccc(F)c(C(=O)c2c[nH]c3ncc(-c4ccc(Cl)cc4)cc23)c1F + Cc1cnc(CNC(=O)c2c(=O)c3ccc(N4CCCN(C)CC4)nc3n3c2sc2ccccc23)cn1", "MEASURED_VALUE": 72.4}
{"COMPOUND": "COc1ccc([C@@H](O)c2cc(-c3ncnc4cc(N5CCOCC5)ccc34)c(F)cc2Cl)nn1 + Cc1[nH]c2ccc(F)cc2c1-c1nc2c3cccnc3c3ncccc3c2[nH]1", "MEASURED_VALUE": 89.9}
{"COMPOUND": "COc1cc(C2c3cc4c(cc3C(OC3OC5COC(C)OC5C(O)C3O)C3COC(=O)C23)OCO4)cc(OC)c1O (stereo not given) + CN(C)c1ccc(Nc2c3ccc(NC(=O)CCN4CCCC4)cc3nc3cc(NC(=O)CCN4CCCC4)ccc23)cc1", "MEASURED_VALUE": 94.5}
{"COMPOUND": "Cc1cccc(N(C)C(=O)C2C(O)CCN2c2nc(C)cc(C(F)(F)F)c2C#N)c1 (stereo not given) + Cc1cnc(CNC(=O)c2c(=O)c3ccc(N4CCCN(C)CC4)nc3n3c2sc2ccccc23)cn1", "MEASURED_VALUE": 93.3}

What the record says about C#Cc1c(F)ccc2cc(O)cc(-c3ncc4c(N5CC6CCC(C5)N6)nc(OCC56CCCN5CC(F)C6)nc4c3F)c12 (stereo not given) + Cc1[nH]c2ccc(F)cc2c1-c1nc2c3cccnc3c3ncccc3c2[nH]1 : viability, T/C is 41.1
